Entry source: ChEMBL document CHEMBL5550083

assay: Lipophilicity, log D of the compound in PBS at 100 uM at pH 7.4 incubated for 20 mins by UPLC analysis; format: physicochemical
ENDPOINT NAME: logD at 20 min, 100 µM

(P) CCCCN(C)CCN(CC)C(=O)CNCc1cc(C(=O)OCC)ccn1
(Q) CCOC(=O)c1ccnc(CNCC(=O)N(CC)CCN(C)C)c1
I'd appreciate it if you could identify which of P and Q has the greater logD at 20 min, 100 µM. Lab log: write the label of the selected item as the result.
P
(P: 2.2, Q: 1.5)

* * *

biological target: UniProt P41229
Sequence (P41229 whole entry): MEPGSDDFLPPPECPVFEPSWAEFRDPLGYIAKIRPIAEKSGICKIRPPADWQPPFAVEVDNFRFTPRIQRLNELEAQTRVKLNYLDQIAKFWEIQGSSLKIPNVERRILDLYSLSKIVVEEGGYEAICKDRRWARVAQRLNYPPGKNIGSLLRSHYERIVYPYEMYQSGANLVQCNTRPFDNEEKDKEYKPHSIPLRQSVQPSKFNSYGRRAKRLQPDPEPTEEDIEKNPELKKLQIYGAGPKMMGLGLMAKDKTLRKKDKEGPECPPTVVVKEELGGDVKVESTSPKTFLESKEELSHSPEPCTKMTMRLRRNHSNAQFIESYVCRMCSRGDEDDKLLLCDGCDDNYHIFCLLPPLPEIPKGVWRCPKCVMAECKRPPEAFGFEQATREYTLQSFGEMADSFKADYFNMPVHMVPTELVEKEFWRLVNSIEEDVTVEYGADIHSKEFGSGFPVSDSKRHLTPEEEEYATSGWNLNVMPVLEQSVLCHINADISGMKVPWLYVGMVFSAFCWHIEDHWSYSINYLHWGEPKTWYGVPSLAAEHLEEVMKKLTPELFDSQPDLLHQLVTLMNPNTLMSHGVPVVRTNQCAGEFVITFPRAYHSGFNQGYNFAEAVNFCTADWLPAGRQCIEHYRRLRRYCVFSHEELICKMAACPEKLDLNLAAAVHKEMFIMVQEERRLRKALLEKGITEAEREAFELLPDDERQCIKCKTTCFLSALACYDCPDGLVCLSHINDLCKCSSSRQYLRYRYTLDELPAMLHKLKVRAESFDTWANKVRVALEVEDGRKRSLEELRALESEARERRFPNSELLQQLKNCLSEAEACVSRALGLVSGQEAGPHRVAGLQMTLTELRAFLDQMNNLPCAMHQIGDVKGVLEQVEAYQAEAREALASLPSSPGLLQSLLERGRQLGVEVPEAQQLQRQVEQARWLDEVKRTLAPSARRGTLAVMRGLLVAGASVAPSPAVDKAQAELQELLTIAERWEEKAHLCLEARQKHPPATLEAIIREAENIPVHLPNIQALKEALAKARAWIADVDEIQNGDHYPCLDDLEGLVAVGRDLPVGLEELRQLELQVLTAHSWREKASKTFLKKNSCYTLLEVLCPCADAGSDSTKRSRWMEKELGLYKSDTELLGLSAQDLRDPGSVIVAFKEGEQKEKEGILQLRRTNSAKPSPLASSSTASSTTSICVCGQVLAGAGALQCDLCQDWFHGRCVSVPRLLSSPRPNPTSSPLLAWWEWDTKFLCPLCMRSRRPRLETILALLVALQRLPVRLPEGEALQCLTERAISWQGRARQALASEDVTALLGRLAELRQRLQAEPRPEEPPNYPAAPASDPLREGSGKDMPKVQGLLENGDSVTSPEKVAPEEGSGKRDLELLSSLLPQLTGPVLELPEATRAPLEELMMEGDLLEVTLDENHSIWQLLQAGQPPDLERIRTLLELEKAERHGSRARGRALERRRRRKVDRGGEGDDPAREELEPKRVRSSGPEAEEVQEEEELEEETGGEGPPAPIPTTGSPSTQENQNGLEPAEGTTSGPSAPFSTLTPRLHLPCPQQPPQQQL
ENDPOINT NAME: pIC50
The scale used: pIC50 is minus the common logarithm of the concentration in molar units.

Find the measured pIC50 of `CCCCN(C)CCN(CC)C(=O)CNCc1cc(C(=O)O)ccn1` with UniProt P41229 as test system.
7.87
